- MEASURED_ON: T1, extracellular domain of human BCMA (human, UniProt Q02223 1-54)
- T1 construct: amine-linked to Octet AR2G tips; also called hsBCMA; BCMA (human)
- T1 sequence: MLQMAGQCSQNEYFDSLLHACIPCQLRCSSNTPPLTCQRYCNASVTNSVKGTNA
- ASSAY_NAME: Octet BLI; Fab 200 nM
Documented pKd across a set of binders
Scale for pKd: -log10 of concentration given in mol/L; no unit attached.

As a guide, the following entries are already answered.
AB200-(2Vk44)_R2-VH-v41 (Fab, V domains shown) VH: QVQLVQSGAEVKKPGSSVKVSCKASGGTFTNYWIHWVRQAPGQGLEWMGGTYRIHSDTYYNEKFKSRVTITADKSTSTAYMELSSLRSEDTAVYYCARGAIYHGFDVIDNWGQGTLVTVSS VL: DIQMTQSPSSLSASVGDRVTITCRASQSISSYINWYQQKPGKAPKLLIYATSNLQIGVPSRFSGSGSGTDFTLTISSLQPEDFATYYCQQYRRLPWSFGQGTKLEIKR ... 8.43
AB200-(2Vk44)_R2-VH-v54 (Fab, V domains shown) VH: QVQLVQSGAEVKKPGSSVKVSCKASGGSFSNYWIHWVRQAPGQGLEWMGATYRIHSDTNYNEKFKSRVTITADKSTSTAYMELSSLRSEDTAVYYCARGAIYHGYDVIENWGQGTLVTVSS VL: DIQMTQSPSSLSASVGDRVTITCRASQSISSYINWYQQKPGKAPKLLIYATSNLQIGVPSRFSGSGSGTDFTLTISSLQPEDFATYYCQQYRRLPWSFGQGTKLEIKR ... 7.16
AB200-(2Vk44)_R2-VH-v68 (Fab, V domains shown) VH: QVQLVQSGAEVKKPGSSVKVSCKASGGTFSNYWIHWVRQAPGQGLEWMGATYRIHSDTNYAQKFKSRVTITADESTSTAYMELSSLRSEDTAVYYCARGAIYHGFDVIDNWGQGTLVTVSS VL: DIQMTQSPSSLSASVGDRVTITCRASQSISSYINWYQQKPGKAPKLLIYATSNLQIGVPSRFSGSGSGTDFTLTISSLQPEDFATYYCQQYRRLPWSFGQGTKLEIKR ... 7.22

stdin: Entry AB200-(2Vk44)_R2-VH-v14 (Fab, V domains shown) VH: QVQLVQSGAEVKKPGSSVKVSCKASGGSFSNYWIHWVRQAPGQGLEWMGATYRSHSTTYYNEKFKSRVTITADKSTSTAYMELSSLRSEDTAVYYCARGAVYHGYDVIDNWGQGTLVTVSS VL: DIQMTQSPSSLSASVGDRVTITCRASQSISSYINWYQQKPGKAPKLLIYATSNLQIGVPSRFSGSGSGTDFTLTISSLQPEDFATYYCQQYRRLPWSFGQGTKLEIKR has what pKd?
stdout: 8.12

All figures here come from patent US20240327535A1.
